Sourced from PubChem BioAssay

experiment: differential killing of epithelial or mesenchymal cells, primary screen, imaging, PC-3E GFP, TEM4-18 mCherry, co-culture (AID 1345086); settings: imaging cell counts, at 1 µM, actives lie on both sides, counts scaled to control wells, 1 = unselective;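 note: normalised mesenchymal count divided by normalised epithelial count so high means epithelial killing; cells exposed to compound for 72 h before imaging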
The source made the active and inactive calls.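 Rule for the calls: active = compounds killing one labelled cell type while sparing the other, by normalised counts and ratio limits, not self-fluorescent; inactive = the rest.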
readoutKind: red/green cell ratio (normalised)

// solved cases for red/green cell ratio (normalised) follow
O=c1[nH]cc(F)c(=O)[nH]1; 0.94 (inactive)
COc1cc2nc(N(C)CCCNC(=O)C3CCCO3)nc(N)c2cc1OC (configuration not stated); 0.93 (inactive)
O=C1NC(=O)C(c2ccccc2)(c2ccccc2)N1; 0.93 (inactive)
CCN(CC)C(=S)SSC(=S)N(CC)CC; 0.63 (inactive)
CN(C)CCCN1c2ccccc2CCc2ccccc21; 1.07 (inactive)
CN(C)c1ccc(O)c2c1C[C@H]1C[C@H]3[C@H](N(C)C)C(=O)C(C(N)=O)=C(O)[C@@]3(O)C(=O)C1=C2O; 1.2 (inactive)
CC[C@H](C)C(=O)O[C@H]1C[C@@H](C)C=C2C=C[C@H](C)[C@H](CC[C@@H]3C[C@@H](O)CC(=O)O3)[C@H]21; 0.98 (inactive)
Cc1noc(NS(=O)(=O)c2ccc(N)cc2)c1C; 1.68 (inactive)
c1ccc(CC2=NCCN2)cc1; 1.19 (inactive)
CCCCNC(=O)NS(=O)(=O)c1ccc(C)cc1; 1.12 (inactive)

Task: Specify measured red/green cell ratio (normalised) for CC[N+](C)(C)c1cccc(O)c1 .
Result: 1.2 (inactive)

Task: Specify red/green cell ratio (normalised) for O=C(O)c1cccnc1 and stop.
Result: 1.22 (inactive)

----------
assay: glucagon-like peptide 1 release enhancers, primary assay, NCI-H716 cell line, NPC library (AID 1117341); conditions: NCI-H716 cells, at 10 µM, active compounds read high
Listing of entries alongside the reported GLP1 secretion stimulation.
Write down the numeric answer in % and omit the unit.

O=C(/C=C/c1ccc(O)c(O)c1)O[C@@H]1C[C@@](OC(=O)/C=C/c2ccc(O)c(O)c2)(C(=O)O)C[C@@H](O)[C@@H]1O; 3.7
CN(C)CCC[C@@]1(c2ccc(F)cc2)OCc2cc(C#N)ccc21; 10.5
CC1=C(/C=C/C(C)=C/C=C/C(C)=C/C(=O)O)C(C)(C)CCC1; 14.4
COc1ccc(CCC(C)=O)cc1; -3.2
CCOc1ccc(S(=O)(=O)O)c2cccnc12; -3.3
Cc1ccc(S(=O)(=O)NC(=O)NN2CCCCCC2)cc1; 1.4
Nc1nc2ccccc2n1Cc1ccc(F)cc1; -0.6
CCCCCN=C(N)N/N=C/c1c[nH]c2ccc(OC)cc12; 53.2

Task: Report GLP1 secretion stimulation for C[C@@H](O)[C@H]1C(=O)N2C(C(=O)[O-])=C(SC3Cn4cnc[n+]4C3)[C@H](C)[C@H]12 (stereo partly drawn)
Result: 0.8

Task: Output GLP1 secretion stimulation of OCCN(CCO)c1nc(N2CCCCC2)c2nc(N(CCO)CCO)nc(N3CCCCC3)c2n1
Result: 8

Task: Fill in GLP1 secretion stimulation for record CCN(CC)S(=O)(=O)c1ccc(C(=O)O)cc1
Result: -3.2

Task: Give a short answer stating reported GLP1 secretion stimulation for CC(C)CCC[C@@H](C)[C@H]1CC[C@H]2[C@@H]3CC=C4C[C@@H](O)CC[C@]4(C)[C@@H]3CC[C@]12C .
Result: -2.1

Task: Give the value of GLP1 secretion stimulation reported for the following: O=c1[nH]c2ccccc2c(=O)n1CCCl
Result: 2.8
